Cited source: patent US20230054976A1

# Test system: 2-AP labeled SNCA IRE RNA
# assayNotes: 2-AP emission assay
# Format: binding, human
# conditionDetails: decrease of 2-AP emission; listed as Synucleozid
quantityKind: pEC50
Would you please state pEC50, meaning minus log10 of the concentration in mol/L, as a bare number?

Request: Item: N=C(N)c1ccc(Nc2ccc(-c3cc4ccc(C(=N)N)cc4[nH]3)cc2)cc1 [Synucleozid A] Test system: 2-AP labeled SNCA IRE RNA Read-out: pEC50 Value: ?
Result: 5.57

###

# system: RNA-1 (A bulge mutated to a base pair)
# assayNotes: Competitive binding assay (2-AP), RNA-1
pKd: −log10 of the molar value.
quantityKind: pKd

Request: I would be grateful if you could share the reported pKd for N=C(N)c1ccc(Nc2ccc(-c3cc4ccc(C(=N)N)cc4[nH]3)cc2)cc1 [Synucleozid A] .
Result: ~4.70
